Experiment: protein stability index of a GFP-peptide fusion (GPS, HEK-293T) (PSI 1-6); higher = more stable;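 also: 24-mer peptide tiles fused after GFP, lentivirally expressed, FACS-sorted into six equal bins by GFP/DsRed ratio, decoded by Illumina sequencing, PSI is the read-weighted mean bin number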
Details: treatment: DMSO; c terminus: a fixed tail appended
Is protein stability index at least 4? Then T. If not, F.

FVFFVLLNMFLAIINDTYSEVKEE [PKD2L1] = F

Reported protein stability index at or above 4? PTPMPHNKGTRFSEAWEYFHLAPA [ZBED2]
F

Again, but for ILNLKKKECKDRGFEYDGKINAWD [NLN]
F

Again, but for YFKCVQKDIQPYMRRMVATWMLEV [CCND2]
F

Again, but for LLSSGFEIDTPDKFGRTCLHAAAA [ANKRD44]
F

Again, but for QPSFEPTKNKELTDEFRELRATVE [FADS1]
T

Again, but for KLAQALHEMREQHDAQVRLYKEEL [LMNB1]
F

Again, but for PALSQLVNLYLGRSHFLWKEPATM [TCF25]
F

Again, but for YGEFYKSLTNDWEDHLAVKHFSVE [HSP90AB1]
F

Again, but for KVLILRNHGLVSVGESVEEAFYYI [ADD1]
F

Again, but for GNLEVGEPQSEPVRVLDMVAKLES [FBXO34]
T

Again, but for VRDQGPSIPLTPGDTPIRKKEELL [FBF1]
T

Again, but for GLSGSGVAFVCAFSEALAEGAVKM [PYCR3]
F

Provenance of the data: the supplement of paper PMC10567573
